- assayed system: GPR40 (Homo sapiens)
- Construct: expressed in transfected cells; host or cells: CHO cell line stably expressing GPR40 and aequorin
- assay method text: Aequorin Ca2+ flux assay in CHO cell line stably expressing GPR40
- Assay type: cell-based
- condition: CHO-GPR40 stable cell line, compared to natural free fatty acid ligands, read-out: Emax (efficacy)
readout type: Emax (%)
Your answer should be a plain number; it is taken to be in %.

Illustrative cases are given below, each with its answer.
CC[C@H](CC(=O)O)c1cccc(OCc2ccc(-c3cc(OC)ccc3F)c([C@@H]3CCCC3(C)C)c2)c1F [AM-6226] :: 105
CC#CC(CC(=O)O)c1ccc(OCc2ccc(-c3cccc(OC)c3)cc2)cc1 (racemic) [(±)-AM-8596] :: 98
C/C=C/[C@H](CC(=O)O)c1ccc(OCc2ccc(-c3cc(OC)ccc3F)cc2)cc1 [AM-8182] :: 106

Now for the compound whose Emax we want.
In: Fill in the blank: the reported Emax of COc1ccc(F)c(-c2ccc(COc3cccc([C@@H](CC(=O)O)C4CC4)c3)cc2C2=CCCC2(C)C)c1 [AM-1638] is ____.
Out: 100

---

- assayed system: mouse GPR40 (Mus musculus, UniProt Q76JU9)
- Sequence (Q76JU9 whole entry): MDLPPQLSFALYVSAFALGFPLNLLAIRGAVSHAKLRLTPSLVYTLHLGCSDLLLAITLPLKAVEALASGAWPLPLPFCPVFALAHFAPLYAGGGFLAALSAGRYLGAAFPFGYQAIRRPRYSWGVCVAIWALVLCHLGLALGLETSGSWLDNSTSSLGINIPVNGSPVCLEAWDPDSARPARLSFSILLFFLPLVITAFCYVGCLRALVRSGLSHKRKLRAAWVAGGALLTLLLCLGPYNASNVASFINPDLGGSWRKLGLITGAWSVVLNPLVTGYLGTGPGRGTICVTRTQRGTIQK
- assay method text: Mouse GPR40 inositol phosphate accumulation assay
Recorded measurements of pEC50, one per entry
Kindly note that pEC50 refers to -log10 of the concentration in mol/L and answer with the value alone.

COc1ccc(F)c(-c2ccc(COc3cccc([C@@H](CC(=O)O)C4CC4)c3)cc2C2=CCCC2(C)C)c1 :: 7.89

Field: next compound
In: GET /values?readout=pEC50&system=mouse GPR40 (Mus musculus, UniProt Q76JU9)&item= CC#C[C@@H](CC(=O)O)c1ccc(OCc2cccc(-c3ccc(C(F)(F)F)cc3)c2)cc1 [AMG 837, reference compound]
Out: 7.96

---

- assayed system: GPR40 (Homo sapiens, UniProt O14842)
- Construct: expressed in transfected cells; host or cells: CHO cell line stably expressing GPR40 and aequorin
- Sequence (O14842 whole entry): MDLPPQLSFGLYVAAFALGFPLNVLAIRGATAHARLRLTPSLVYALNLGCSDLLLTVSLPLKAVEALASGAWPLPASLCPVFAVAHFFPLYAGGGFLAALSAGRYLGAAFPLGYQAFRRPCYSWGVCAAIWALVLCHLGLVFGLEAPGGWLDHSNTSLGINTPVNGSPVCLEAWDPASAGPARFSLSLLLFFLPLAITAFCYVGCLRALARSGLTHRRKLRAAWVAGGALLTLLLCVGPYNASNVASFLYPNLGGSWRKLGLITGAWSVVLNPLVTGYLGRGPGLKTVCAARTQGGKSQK
- assay method text: Inositol phosphate accumulation assay in A9 cells stably expressing GPR40 (A9_GPR40)
- Format: cell-based
- condition: inositol phosphate assay, 1-hour accumulation; read-out: Half-maximal potency
readout type: pEC50
Would you please state pEC50, meaning minus log10 of the concentration in mol/L, as a bare number?

COc1ccc(F)c(-c2ccc(COc3cccc([C@@H](CC(=O)O)C4CC4)c3)cc2C2=CCCC2(C)C)c1 :: 7.88

In: Lab note: need pEC50 with GPR40 (Homo sapiens, UniProt O14842) for entry "CC[C@H](CC(=O)O)c1cccc(OCc2ccc(-c3cc(OC)ccc3F)c([C@@H]3CCCC3(C)C)c2)c1F" , please look it up.
Out: 8.24

---

Each item that follows carries a reported EC50.
- assayed system: GPR120 (Homo sapiens, UniProt Q5NUL3)
- Sequence (Q5NUL3 whole entry, species assumed): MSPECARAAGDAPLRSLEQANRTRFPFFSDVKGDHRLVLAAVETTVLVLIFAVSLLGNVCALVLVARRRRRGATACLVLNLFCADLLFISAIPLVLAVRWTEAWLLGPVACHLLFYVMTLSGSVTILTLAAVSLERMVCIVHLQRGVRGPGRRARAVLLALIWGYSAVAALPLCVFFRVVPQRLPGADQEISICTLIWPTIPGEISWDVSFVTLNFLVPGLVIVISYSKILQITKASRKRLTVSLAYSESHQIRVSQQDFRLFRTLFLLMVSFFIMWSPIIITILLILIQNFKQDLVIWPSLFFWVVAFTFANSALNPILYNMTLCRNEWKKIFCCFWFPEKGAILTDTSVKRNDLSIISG
- assay method text: GPR120 aequorin assay
- condition: weak activity

COc1ccc(F)c(-c2ccc(COc3cccc([C@@H](CC(=O)O)C4CC4)c3)cc2C2=CCCC2(C)C)c1 [AM-1638] :: ~5 µM

Now let's try a different one.
In: # EC50 lookup, item CC[C@H](CC(=O)O)c1cccc(OCc2ccc(-c3cc(OC)ccc3F)c([C@@H]3CCCC3(C)C)c2)c1F [AM-6226]
Out: ~5 µM
